Examples of binders with documented pKd follow.
Molecular target: T1, ARHGEF11, O15085
T1 sequence (O15085 42-136, limits assumed, looked up): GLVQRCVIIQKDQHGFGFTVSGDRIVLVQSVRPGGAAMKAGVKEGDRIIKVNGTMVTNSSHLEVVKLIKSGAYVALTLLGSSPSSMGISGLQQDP
Test: holdup assay
Parameters: key: below the threshold = too weak to quantify, mostly under pKd 3.1 to 4
Details: plain residues with an end cap or a label only (N-terminal biotin on a linker: ado-ado)
The answer should be a number; do not append a unit.

These recorded examples may help you get a feel for the data.
KSRVAFFEEL [NF2, P35240;P35240-1] ... 4.32
ARGPPRESEV [FAM110D, Q8TAY7] ... 4
MQHQRTHTRV [ZSCAN30, Q86W11] ... 4.3
QSGLYESEEL [MYOT, Q9UBF9] ... 4.38
EIPAQSPTCV [FZD10, Q9ULW2] ... 4.2

Now consider a different binder.
Prompt line: # input binder: TGLWKHETTV [ADGRA3, Q8IWK6] ; wanted: its pKd
Response line: 4.31
